target: hFASN enzyme (full length) (Homo sapiens, UniProt P49327); construct: 10 μL hFASN enzyme (full length, 300 ng, purified in house); made in house; test: Fatty Acid Synthase (FASN) inhibition scintillation proximity assay; assay type: biochemical; conditions: read-out: Human FASN pIC50 (converted)
Sequence (P49327 whole entry): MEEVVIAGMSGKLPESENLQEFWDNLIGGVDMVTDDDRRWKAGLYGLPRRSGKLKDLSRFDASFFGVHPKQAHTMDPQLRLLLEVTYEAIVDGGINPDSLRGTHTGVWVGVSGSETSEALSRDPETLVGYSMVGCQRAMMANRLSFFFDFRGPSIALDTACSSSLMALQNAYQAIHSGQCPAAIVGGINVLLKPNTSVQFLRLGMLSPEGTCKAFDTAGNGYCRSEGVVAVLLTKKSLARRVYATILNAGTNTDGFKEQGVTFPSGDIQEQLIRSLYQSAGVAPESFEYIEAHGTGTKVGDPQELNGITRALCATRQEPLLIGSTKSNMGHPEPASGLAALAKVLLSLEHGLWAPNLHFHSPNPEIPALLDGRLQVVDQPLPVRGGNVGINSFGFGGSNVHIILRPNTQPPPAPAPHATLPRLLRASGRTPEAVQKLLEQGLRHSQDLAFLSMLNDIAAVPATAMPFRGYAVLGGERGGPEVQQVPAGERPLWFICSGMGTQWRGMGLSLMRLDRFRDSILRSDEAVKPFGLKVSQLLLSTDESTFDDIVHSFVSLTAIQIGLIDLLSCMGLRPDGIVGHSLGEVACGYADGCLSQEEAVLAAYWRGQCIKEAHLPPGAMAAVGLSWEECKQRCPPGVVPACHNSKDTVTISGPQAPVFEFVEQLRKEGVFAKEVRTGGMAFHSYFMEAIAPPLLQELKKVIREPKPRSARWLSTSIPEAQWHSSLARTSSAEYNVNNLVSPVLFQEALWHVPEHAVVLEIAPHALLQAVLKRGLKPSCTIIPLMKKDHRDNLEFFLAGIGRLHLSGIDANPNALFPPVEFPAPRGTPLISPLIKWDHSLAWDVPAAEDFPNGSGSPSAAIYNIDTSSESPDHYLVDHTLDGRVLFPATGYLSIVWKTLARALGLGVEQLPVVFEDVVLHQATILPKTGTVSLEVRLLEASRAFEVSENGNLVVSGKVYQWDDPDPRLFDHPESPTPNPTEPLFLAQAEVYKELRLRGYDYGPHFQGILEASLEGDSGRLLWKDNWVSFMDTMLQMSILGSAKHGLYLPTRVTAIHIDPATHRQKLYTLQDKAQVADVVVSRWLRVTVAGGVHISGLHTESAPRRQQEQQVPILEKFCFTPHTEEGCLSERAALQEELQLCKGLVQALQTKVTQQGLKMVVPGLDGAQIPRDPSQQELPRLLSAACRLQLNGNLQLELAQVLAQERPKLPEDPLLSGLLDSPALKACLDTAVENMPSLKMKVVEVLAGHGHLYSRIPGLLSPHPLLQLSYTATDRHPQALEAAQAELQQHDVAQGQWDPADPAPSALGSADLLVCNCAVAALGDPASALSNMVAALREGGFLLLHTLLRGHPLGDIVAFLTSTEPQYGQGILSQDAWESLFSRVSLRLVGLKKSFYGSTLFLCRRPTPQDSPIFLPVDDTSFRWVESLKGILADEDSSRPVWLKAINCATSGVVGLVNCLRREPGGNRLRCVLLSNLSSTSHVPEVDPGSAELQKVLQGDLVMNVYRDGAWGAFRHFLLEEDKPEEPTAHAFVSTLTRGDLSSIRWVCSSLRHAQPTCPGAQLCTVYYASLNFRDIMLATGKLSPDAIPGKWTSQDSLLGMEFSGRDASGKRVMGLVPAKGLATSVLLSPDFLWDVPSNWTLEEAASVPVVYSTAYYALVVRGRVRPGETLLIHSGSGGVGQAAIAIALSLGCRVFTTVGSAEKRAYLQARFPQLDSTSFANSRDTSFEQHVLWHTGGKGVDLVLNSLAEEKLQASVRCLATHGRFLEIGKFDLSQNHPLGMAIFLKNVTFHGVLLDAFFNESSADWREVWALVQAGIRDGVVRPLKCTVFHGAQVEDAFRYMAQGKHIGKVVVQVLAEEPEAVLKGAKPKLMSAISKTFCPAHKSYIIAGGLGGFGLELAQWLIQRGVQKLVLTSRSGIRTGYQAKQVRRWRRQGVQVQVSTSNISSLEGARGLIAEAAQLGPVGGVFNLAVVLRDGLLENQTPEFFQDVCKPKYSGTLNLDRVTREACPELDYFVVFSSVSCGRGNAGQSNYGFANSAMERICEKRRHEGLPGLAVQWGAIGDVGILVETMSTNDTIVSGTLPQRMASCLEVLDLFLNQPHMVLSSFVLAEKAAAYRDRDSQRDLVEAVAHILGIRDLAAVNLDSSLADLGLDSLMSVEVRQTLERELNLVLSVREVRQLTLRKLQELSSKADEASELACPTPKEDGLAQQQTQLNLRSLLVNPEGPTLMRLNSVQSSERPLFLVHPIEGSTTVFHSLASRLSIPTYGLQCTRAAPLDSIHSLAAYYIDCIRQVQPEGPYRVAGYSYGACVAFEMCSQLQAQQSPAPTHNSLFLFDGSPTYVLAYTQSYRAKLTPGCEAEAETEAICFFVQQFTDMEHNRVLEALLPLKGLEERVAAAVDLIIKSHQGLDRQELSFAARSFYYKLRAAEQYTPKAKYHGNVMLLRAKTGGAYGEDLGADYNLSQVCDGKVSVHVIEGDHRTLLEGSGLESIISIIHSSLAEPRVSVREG
Label Met when IC50 is strictly below 200 nM; otherwise label Not met.

Quick check: IC50 of O=C(C1CC1)N1CC(CN2C(=O)C3(CC3)N=C2c2ccc(-c3ccc4cccc(F)c4c3)cc2F)C1 [compound 350] under 200 nM?
Met

// query: Cc1cc2cc(-c3ccc(C4=NC5(CC5)C(=O)N4CC4CN(C(=O)C5CC5)C4)c(C)c3)ccc2[nH]1 [compound 263]
Met

// query: N#Cc1ccc(-c2ccc(C3=NC4(CC4)C(=O)N3CC3CN(C(=O)C4CC4)C3)cc2)cc1 [compound 41]
Not met

// query: COC(=O)N1CCC2(CC1)N=C(c1ccc(-c3ccc4[nH]ccc4c3)cc1)N(CC1CN(C(=O)C3CC3)C1)C2=O [compound 17]
Not met

// query: Cn1ncc2nc(-c3ccc(C4=NC5(CC5)C(=O)N4CC4CN(C(=O)C5CC5)C4)cc3)ccc21 [compound 792]
Not met

// query: Cc1nc2ccc(-c3ccc(C4=NC5(CC5)C(=O)N4CC4CN(C(=O)C5CC5)C4)c(F)c3)cc2n1C [compound 654]
Not met

// query: O=C(C1CC1)N1CC[C@@H](CN2C(=O)C3(CCCC3)N=C2c2ccc(-c3ccc4cc[nH]c4c3)cc2F)C1 [compound 874]
Met
